Reference for the values: the kinase profiling compilation of Christmann-Franck et al. (2016)

STUDY_TARGET: EPHB2 (human)
TEST_DESCRIPTION: radiometric filter-binding kinase assay, Kinase HotSpot
TEST_CONDITIONS: compound 0.5 µM; ATP 10 µM
Kindly supply the reported residual activity values for the records listed here.
One number for each entry, in %.

// known answers, use as guide
molecule_smiles=O=C1NC(=O)C(c2cn(CCCO)c3ncccc23)=C1c1cnccn1 study_target="EPHB2 (human)" recorded_number=78.3
molecule_smiles=O=C1Nc2ccccc2/C1=C1\Nc2ccccc2\C1=N/O study_target="EPHB2 (human)" recorded_number=83.3
molecule_smiles=COc1cc2ncnc(N3CCN(C(=O)Nc4ccc(Oc5ccccc5)cc4)CC3)c2cc1OC study_target="EPHB2 (human)" recorded_number=98.2
molecule_smiles=CC(=O)O/N=C1\C(=C2\C(=O)Nc3cc(Br)ccc32)Nc2ccccc21 study_target="EPHB2 (human)" recorded_number=81.4
molecule_smiles=Cc1nc2cc3nc(-c4cccs4)cnc3cc2n1C study_target="EPHB2 (human)" recorded_number=101

Give measured residual activity for every item shown.
1. O=C(O)/C=C/c1cc(Br)c(Br)c(Br)c1Br
2. O=C1Cc2c([nH]c3ccc(Br)cc23)-c2ccccc2N1
3. Oc1ccc(Nc2nc(-c3ccc(Cl)cc3)cs2)cc1
4. Nc1nnc2[nH]c3ccccc3nc1-2

103
95.5
101
103

====

Kindly supply the reported residual activity values for the records listed here.
STUDY_TARGET: UniProt P78368
Sequence (P78368 whole entry, looked up): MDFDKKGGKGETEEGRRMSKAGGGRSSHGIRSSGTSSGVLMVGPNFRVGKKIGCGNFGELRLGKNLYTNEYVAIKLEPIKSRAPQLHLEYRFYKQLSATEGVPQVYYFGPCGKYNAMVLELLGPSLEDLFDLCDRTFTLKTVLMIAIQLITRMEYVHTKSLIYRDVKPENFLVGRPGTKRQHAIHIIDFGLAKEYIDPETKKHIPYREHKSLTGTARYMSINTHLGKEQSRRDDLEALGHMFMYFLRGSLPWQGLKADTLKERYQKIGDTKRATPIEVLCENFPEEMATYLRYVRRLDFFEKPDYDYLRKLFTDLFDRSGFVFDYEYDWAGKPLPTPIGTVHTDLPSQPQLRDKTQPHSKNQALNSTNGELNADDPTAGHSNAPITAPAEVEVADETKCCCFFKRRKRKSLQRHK
TEST_DESCRIPTION: radiometric filter-binding kinase assay, Kinase HotSpot
TEST_CONDITIONS: compound 0.5 µM; ATP 10 µM
Numbers only, in %.

molecule_smiles=Cn1sc(=O)n(Cc2ccccc2)c1=O study_target="UniProt P78368" recorded_metric="residual activity" recorded_number=95

Give measured residual activity for every item shown.
1. O=C(O)/C=C/c1cc(Br)c(Br)c(Br)c1Br
2. Cn1nc2c3c(cccc31)C(=O)c1ccccc1-2
3. COc1cc2ncc(-c3ccccc3)nc2cc1OC

90.1
91.5
84

====

STUDY_TARGET: MARK3 (human) (UniProt P27448)
Sequence (P27448 whole entry, looked up): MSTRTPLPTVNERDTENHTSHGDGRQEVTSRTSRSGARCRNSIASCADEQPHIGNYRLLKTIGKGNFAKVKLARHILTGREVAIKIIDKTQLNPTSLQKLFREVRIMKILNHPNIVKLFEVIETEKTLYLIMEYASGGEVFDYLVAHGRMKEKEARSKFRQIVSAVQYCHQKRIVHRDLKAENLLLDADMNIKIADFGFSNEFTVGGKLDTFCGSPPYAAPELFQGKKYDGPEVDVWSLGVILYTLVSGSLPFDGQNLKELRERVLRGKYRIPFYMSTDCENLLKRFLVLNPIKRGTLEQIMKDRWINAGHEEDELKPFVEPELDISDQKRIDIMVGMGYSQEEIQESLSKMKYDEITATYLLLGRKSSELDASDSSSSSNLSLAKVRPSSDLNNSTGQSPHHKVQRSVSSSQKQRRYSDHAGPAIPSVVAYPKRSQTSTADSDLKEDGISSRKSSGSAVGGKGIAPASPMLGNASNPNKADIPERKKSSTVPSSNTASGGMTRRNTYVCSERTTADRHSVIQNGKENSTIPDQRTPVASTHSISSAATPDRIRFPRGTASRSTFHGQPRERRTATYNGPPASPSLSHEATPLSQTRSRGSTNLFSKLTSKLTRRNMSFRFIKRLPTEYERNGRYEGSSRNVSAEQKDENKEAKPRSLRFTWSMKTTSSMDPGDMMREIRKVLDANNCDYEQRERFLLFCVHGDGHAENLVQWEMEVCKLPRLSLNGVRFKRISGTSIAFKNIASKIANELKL
TEST_DESCRIPTION: radiometric filter-binding kinase assay, Kinase HotSpot
TEST_CONDITIONS: compound 0.5 µM; ATP 10 µM
RECORDED_METRIC: residual activity (%)
Numbers only, in %.

// known answers, use as guide
molecule_smiles=O=C(CCCc1ccc(-c2ccccc2F)cc1)Nc1ccc(O)cc1 recorded_number=101
molecule_smiles=COc1cc2ncc(-c3ccccc3)nc2cc1OC recorded_number=98.2
molecule_smiles=COc1cc2ncnc(N3CCN(C(=O)Nc4ccc(Oc5ccccc5)cc4)CC3)c2cc1OC recorded_number=80.4
molecule_smiles=O=C(O)/C=C/c1cc(Br)c(Br)c(Br)c1Br recorded_number=104
molecule_smiles=COc1ccc(OC)c2c(=S)c3ccccc3[nH]c12 recorded_number=96.7

Attention now shifts to the item below.
Short answer for Cn1sc(=O)n(Cc2ccccc2)c1=O : residual activity was 97.1

====

Kindly supply the reported residual activity values for the records listed here.
STUDY_TARGET: NUAK2 (human)
TEST_DESCRIPTION: radiometric filter-binding kinase assay, Kinase HotSpot
TEST_CONDITIONS: compound 0.5 µM; ATP 10 µM

// known answers, use as guide
molecule=CC(=O)O/N=C1\C(=C2\C(=O)Nc3cc(Br)ccc32)Nc2ccccc21 recorded_metric="residual activity" result=85.2%
molecule=O=C1Cc2c([nH]c3ccc(Br)cc23)-c2ccccc2N1 recorded_metric="residual activity" result=71.1%
molecule=CC(C)c1nn(-c2c(Cl)cccc2Cl)c2nc(Cc3ccc(OCCO)cc3)nc(O)c12 recorded_metric="residual activity" result=91.7%

Give measured residual activity for every item shown.
1. O=C1Nc2ccccc2/C1=C1\Nc2ccccc2\C1=N/O
2. Oc1ccc(Nc2nc(-c3ccc(Cl)cc3)cs2)cc1
3. COc1ccc(CNC(=O)Nc2ncc([N+](=O)[O-])s2)cc1
4. COc1cc2ncnc(N3CCN(C(=O)Nc4ccc(Oc5ccccc5)cc4)CC3)c2cc1OC
5. Cn1sc(=O)n(Cc2ccccc2)c1=O

["72.5%", "137%", "89.9%", "77.4%", "97.7%"]

====

STUDY_TARGET: ZAP70 (human)
TEST_DESCRIPTION: radiometric filter-binding kinase assay, Kinase HotSpot
TEST_CONDITIONS: compound 0.5 µM; ATP 10 µM
RECORDED_METRIC: residual activity (%)
One number for each entry, in %.

molecule=CN([C@@H](Cc1ccc(OS(=O)(=O)c2cccc3cnccc23)cc1)C(=O)N1CCN(c2ccccc2)CC1)S(=O)(=O)c1cccc2cnccc12 units=% recorded_number=99.5

Give measured residual activity for every item shown.
1. CCN(CC)CCCCN1c2ccccc2Oc2ccc(Cl)cc21
2. Cn1nc2c3c(cccc31)C(=O)c1ccccc1-2
3. COc1ccc(CNC(=O)Nc2ncc([N+](=O)[O-])s2)cc1
4. Cn1sc(=O)n(Cc2ccccc2)c1=O
5. CC(C)[C@H](CO)Nc1nc(Nc2cc(N)cc(Cl)c2)c2ncn(C(C)C)c2n1
6. Cn1cnc2cc3c(Nc4cccc(Br)c4)ncnc3cc21

1: 91.1; 2: 95.1; 3: 102; 4: 102; 5: 102; 6: 110

Give measured residual activity for every item shown.
1. COc1cc2ncnc(N3CCN(C(=O)Nc4ccc(Oc5ccccc5)cc4)CC3)c2cc1OC
2. CC(C)c1nn(-c2c(Cl)cccc2Cl)c2nc(Cc3ccc(OCCO)cc3)nc(O)c12
3. CN(C)C[C@H]1CCn2c(c(C3=C(c4cn(C)c5ccccc45)C(=O)NC3=O)c3ccccc32)C1
4. O=C1NC(=O)C(c2cn(CCCO)c3ncccc23)=C1c1cnccn1
5. O=C1Nc2ccccc2/C1=C1/Nc2ccccc2/C1=N\OCCC(O)CO (stereo not given)
6. CC(=O)O/N=C1\C(=C2\C(=O)Nc3cc(Br)ccc32)Nc2ccccc21

100
103
105
87.8
97.8
102

Give measured residual activity for every item shown.
1. O=C1Cc2c([nH]c3ccc(Br)cc23)-c2ccccc2N1
2. COc1cc2ncc(-c3ccccc3)nc2cc1OC

1: 93.6; 2: 98.6

====

STUDY_TARGET: MAP3K2 (human)
TEST_DESCRIPTION: radiometric filter-binding kinase assay, Kinase HotSpot
TEST_CONDITIONS: compound 0.5 µM; ATP 10 µM
Lab note: anything with residual activity at or over 90% counts as Fulfilled; the rest go in Not fulfilled.

molecule_smiles=O=C1NC(=O)C(c2cn(CCCO)c3ncccc23)=C1c1cnccn1 class=Fulfilled

Is the recorded value of residual activity equal to or greater than 90% for this compound? CN([C@@H](Cc1ccc(OS(=O)(=O)c2cccc3cnccc23)cc1)C(=O)N1CCN(c2ccccc2)CC1)S(=O)(=O)c1cccc2cnccc12 Fulfilled

Is the recorded value of residual activity equal to or greater than 90% for this compound? CC(=O)O/N=C1\C(=C2\C(=O)Nc3cc(Br)ccc32)Nc2ccccc21 Fulfilled

Is the recorded value of residual activity equal to or greater than 90% for this compound? COc1cc2ncnc(N3CCN(C(=O)Nc4ccc(Oc5ccccc5)cc4)CC3)c2cc1OC Not fulfilled

====

STUDY_TARGET: TBK1 (human)
TEST_DESCRIPTION: radiometric filter-binding kinase assay, Kinase HotSpot
TEST_CONDITIONS: compound 0.5 µM; ATP 10 µM
Kindly supply the reported residual activity values for the records listed here.
Answers are plain numbers, in %.

// known answers, use as guide
molecule_smiles=Cn1cnc2cc3c(Nc4cccc(Br)c4)ncnc3cc21 recorded_number=87.7
molecule_smiles=O=C1NC(=O)/C(=C\c2ccc3nccnc3c2)S1 recorded_number=90.6

Attention now shifts to the item below.
TBK1 (human) data for Nc1nnc2[nH]c3ccccc3nc1-2 ; its residual activity: 92

====

Kindly supply the reported residual activity values for the records listed here.
STUDY_TARGET: AURKB (human)
TEST_DESCRIPTION: radiometric filter-binding kinase assay, Kinase HotSpot
TEST_CONDITIONS: compound 0.5 µM; ATP 10 µM
Numbers only, in %.

// known answers, use as guide
molecule_smiles=CC(C)[C@H](CO)Nc1nc(Nc2cc(N)cc(Cl)c2)c2ncn(C(C)C)c2n1 recorded_metric="residual activity" recorded_number=87.8
molecule_smiles=CC(C)c1nn(-c2c(Cl)cccc2Cl)c2nc(Cc3ccc(OCCO)cc3)nc(O)c12 recorded_metric="residual activity" recorded_number=104

Give measured residual activity for every item shown.
1. O=C1Nc2ccccc2/C1=C1\Nc2ccccc2\C1=N/O
2. Cn1cnc2cc3c(Nc4cccc(Br)c4)ncnc3cc21
3. O=C(Nc1cccc(Nc2cc(Nc3cccc(C(F)(F)F)c3)ncn2)c1)C1CC1
4. COc1cc2ncnc(N3CCN(C(=O)Nc4ccc(Oc5ccccc5)cc4)CC3)c2cc1OC
5. CN(C)C[C@H]1CCn2c(c(C3=C(c4cn(C)c5ccccc45)C(=O)NC3=O)c3ccccc32)C1
6. CCN(CC)CCCCN1c2ccccc2Oc2ccc(Cl)cc21

1: 49.6; 2: 78.2; 3: 98.9; 4: 76.1; 5: 96.3; 6: 94.1
